Let's look at some molecules and their measured log10 IC50.
- TARGET: glucagon receptor (Rattus norvegicus)
- Sequence (P30082 27-485): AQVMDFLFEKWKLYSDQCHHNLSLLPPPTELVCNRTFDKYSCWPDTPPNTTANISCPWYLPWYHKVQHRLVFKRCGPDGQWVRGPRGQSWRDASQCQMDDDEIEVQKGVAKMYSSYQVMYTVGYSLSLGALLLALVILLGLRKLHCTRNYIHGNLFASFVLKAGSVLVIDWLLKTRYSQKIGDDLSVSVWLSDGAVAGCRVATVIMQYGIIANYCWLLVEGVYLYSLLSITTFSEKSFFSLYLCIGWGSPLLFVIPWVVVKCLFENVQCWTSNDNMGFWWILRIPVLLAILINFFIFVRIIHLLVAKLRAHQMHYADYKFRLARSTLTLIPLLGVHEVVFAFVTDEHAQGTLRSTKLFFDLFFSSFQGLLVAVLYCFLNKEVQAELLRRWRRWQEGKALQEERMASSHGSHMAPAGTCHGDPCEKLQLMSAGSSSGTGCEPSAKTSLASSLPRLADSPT
- EXPERIMENT: Experiment for glucagon binding inhibition, rat hepatic membrane (125I-glucagon)
- CONDITION DETAILS: male SD rat hepatic membrane, 125I-glucagon 50 pM, 25° C. for 30 minutes; read-out: Glucagon binding inhibitory activity IC50 (nM) Rat
- Protocol: The preparation of membrane from mouse and rat livers was carried out according to the method described in Bioorg. Med. Chem. Lett. 1992, 12, 915-918 in this experiment and ^125I-glucagon binding activity was measured with these membranes as glucagon receptor's samples. […] The filter was washed 3 times with 50 mM Tris-HCl buffer (pH 7.2), and the radioactivity of the filter was measured by a γ counter (ARC-360, Aloka Co., Ltd.). […]
MEASURED PARAMETER: log10 IC50 (log10 of the value in nM)

INSERT INTO measurements (molecule, data_value) VALUES
  ('Cc1ccc(C)c(COc2cccc(-c3ccoc3C(=O)NNC(=O)c3ccc(O)c([N+](=O)[O-])c3)c2)c1 [Example 127]', 0.93),
  ('O=C(NNC(=O)c1occc1-c1cccc(CCc2ccccc2)c1)c1ccc(O)c([N+](=O)[O-])c1 [Example 232]', 1.58),
  ('N#Cc1cc(C(=O)NNC(=O)c2occc2-c2cccc(OCCc3ccccc3)c2)ccc1O [Example 4]', 1.45),
  ('Cc1ccc(-c2ccoc2C(=O)NNC(=O)c2ccc(O)c(C(F)(F)F)c2)cc1 [Example 240]', 2.48),
  ('O=C(NNC(=O)c1occc1-c1cccc(OCc2ccccc2)c1)c1ccc(O)c([N+](=O)[O-])c1 [Example 101]', 1.52),
  ('CC(C)=CCOc1cccc(-c2ccoc2C(=O)NNC(=O)c2ccc(O)c([N+](=O)[O-])c2)c1 [Example 196]', 1.60),
  ('CCCc1ccc(-c2ccoc2C(=O)NNC(=O)c2ccc(O)c([N+](=O)[O-])c2)cc1 [Example 160]', 0.46);
